System under test: human Peroxisome Proliferator-activated Receptor delta (PPARd), PPARD (gene 5467) (UniProt Q03181)
Sequence (Q03181 whole entry, looked up): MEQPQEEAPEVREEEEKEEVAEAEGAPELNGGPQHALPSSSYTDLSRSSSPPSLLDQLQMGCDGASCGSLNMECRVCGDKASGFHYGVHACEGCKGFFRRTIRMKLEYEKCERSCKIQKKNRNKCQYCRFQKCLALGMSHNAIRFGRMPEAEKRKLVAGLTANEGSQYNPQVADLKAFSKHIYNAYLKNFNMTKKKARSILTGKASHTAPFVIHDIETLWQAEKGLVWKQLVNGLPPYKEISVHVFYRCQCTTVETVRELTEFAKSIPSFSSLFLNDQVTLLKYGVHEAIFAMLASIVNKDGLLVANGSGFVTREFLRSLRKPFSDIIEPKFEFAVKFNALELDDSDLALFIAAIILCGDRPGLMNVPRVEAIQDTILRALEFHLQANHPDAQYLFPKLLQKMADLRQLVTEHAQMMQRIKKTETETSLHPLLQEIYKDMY
Assay method text: ATG_PPARd_TRANS: Attagene TRANS-FACTORIAL HepG2 Assay for human Peroxisome Proliferator-activated Receptor delta (PPARd) (AID 2283002)
Results filed as inconclusive are left out. Calls of active or inactive are those of the source. How the source made its calls: active means hit-call score of the fitted dose curve at least 0.9, where 1 is the maximum; inconclusive means response in the unintended direction; inactive means score below 0.9.
# valid calls are active, inactive; nothing else

CNC(=S)NN: inactive
O=c1[nH]c(=O)c2[nH]c(=O)[nH]c2[nH]1: inactive
CC=CCO: inactive
NC(=O)N=NC(N)=O: inactive
CC(C)c1ccc(C=O)cc1: inactive

Kindly consider the entry below.
Returns: the outcome recorded for CC1(C)S[C@@H]2[C@H](NC(=O)COc3ccccc3)C(=O)N2[C@H]1C(=O)O in this assay. inactive
